So I've got a bunch of compounds here, and I need their DC50 values.
system-tested: IRAK4 (Homo sapiens)
Construct: 293Tcells expressing HiBiT-tagged IRAK4 were then added into 384-well plates
assay-info: IRAK4 Degradation Assay, HiBiT Method
Assay type: cell-based
test-context: 293T cells expressing HiBiT-tagged IRAK4, 6 hours

Task: Give the measured DC50 of CC(C)Oc1cc2nc([C@H]3CC[C@H](CN(C)C4CCN(c5ccc(NC6CCC(=O)NC6=O)cc5)CC4)CC3)cn2cc1C(=O)Nc1cccc(C(F)F)n1 (stereo partly drawn) [Example 20] .
Result: 10 to 100 nM

Task: Okay, and CC(C)Oc1cc2nn(C3CCN(C(=O)CC4CCN(c5ncc(C6CCC(=O)NC6=O)cc5F)CC4)CC3)cc2cc1C(=O)Nc1cnn2cccnc12 (stereo not drawn) [Example 148] ?
Result: 10 to 100 nM

Task: Okay, and CC(C)Oc1cc2nc(C3CCN(C(=O)CN4CCC(c5ccc(C6(F)CCC(=O)NC6=O)cc5)CC4)CC3)cn2cc1C(=O)Nc1cnn2cccnc12 (stereo not drawn) [Example 89] ?
Result: < 10 nM

Task: Okay, and CC(C)Oc1cc2nc([C@H]3CC[C@H](CN4CCC(c5ccc(OC6CCC(=O)NC6=O)cc5)CC4)CC3)cn2cc1C(=O)Nc1cnn2cccnc12 (stereo partly drawn) [Example 50] ?
Result: < 10 nM

Task: Okay, and Cc1cn(C2CCC(=O)NC2=O)c2ccc(C3CCN(C[C@H]4CC[C@H](c5cn6cc(C(=O)Nc7cccc(C(F)F)n7)c(OC(C)C)cc6n5)CC4)CC3)cc12 (stereo partly drawn) [Example 44] ?
Result: 10 to 100 nM

Task: Okay, and CC(C)Oc1cc2nc([C@H]3CC[C@H](CN4CCC(c5ccc(C6CCC(=O)NC6=O)cc5)C(F)(F)C4)CC3)cn2cc1C(=O)Nc1cccc(C(F)F)n1 (stereo partly drawn) [Example 25] ?
Result: 100 to 500 nM

====

So I've got a bunch of compounds here, and I need their DC50 values.
system-tested: IRAK4 (Homo sapiens, UniProt Q9NWZ3)
Construct: 293Tcells expressing HiBiT-tagged IRAK4 were then added into 384-well plates
Sequence (Q9NWZ3 1-460): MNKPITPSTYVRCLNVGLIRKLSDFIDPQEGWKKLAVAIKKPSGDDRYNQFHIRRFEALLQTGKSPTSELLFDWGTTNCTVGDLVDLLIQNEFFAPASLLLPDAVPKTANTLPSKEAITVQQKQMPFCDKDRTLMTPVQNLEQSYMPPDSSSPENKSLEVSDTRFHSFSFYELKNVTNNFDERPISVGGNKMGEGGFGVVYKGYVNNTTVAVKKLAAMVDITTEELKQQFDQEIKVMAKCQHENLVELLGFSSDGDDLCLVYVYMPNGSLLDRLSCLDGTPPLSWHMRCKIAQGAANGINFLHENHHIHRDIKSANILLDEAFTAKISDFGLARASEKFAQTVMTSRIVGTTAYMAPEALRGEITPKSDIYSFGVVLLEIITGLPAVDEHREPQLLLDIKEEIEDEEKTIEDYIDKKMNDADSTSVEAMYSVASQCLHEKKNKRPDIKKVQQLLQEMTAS
assay-info: IRAK4 Degradation Assay, HiBiT Method
Format: cell-based
test-context: 293T cells expressing HiBiT-tagged IRAK4, 6 hours

Task: Give the measured DC50 of Cc1cnc2c(NC(=O)c3cn4cc([C@H]5CC[C@H](CN6CCC(c7ccc(OC8CCC(=O)NC8=O)cc7)CC6)CC5)nc4cc3OC(C)C)cnn2c1 (stereo partly drawn) [Example 52] .
Result: < 10 nM

Task: Okay, and CC(C)Oc1nc2nc(C3CCN(C(=O)CC4CCN(c5ncc(C6CCC(=O)NC6=O)cc5F)CC4)CC3)cn2cc1C(=O)Nc1cccn([C@H]2C[C@H]2F)c1=O (stereo partly drawn) [Example 186] ?
Result: < 10 nM

Task: Okay, and CC(C)Oc1cc2nc([C@H]3CC[C@H](CN(C)C4CCN(Cc5ccc6c(c5)n(C)c(=O)n6C5CCC(=O)NC5=O)CC4)CC3)cn2cc1C(=O)Nc1cccc(C(F)F)n1 (stereo partly drawn) [Example 43] ?
Result: 10 to 100 nM

Task: Okay, and CC(C)Oc1cc2nc(C3CCN(CC(=O)N4CCC(c5cc(F)c(C6CCC(=O)NC6=O)cc5F)CC4)CC3)cn2cc1C(=O)Nc1cccc(C(F)F)n1 (stereo not drawn) [Example 97] ?
Result: 10 to 100 nM

Task: Okay, and CC(C)Oc1cc2nc(C3CCN(C(=O)CN4CCC(c5ccc(C6CCC(=O)NC6=O)cc5F)CC4)CC3)cn2cc1C(=O)Nc1cccc(C(F)F)n1 (stereo not drawn) [Example 80] ?
Result: 10 to 100 nM

Task: Okay, and CC(C)Oc1cc2nn(C3CCN(C(=O)CN4CCC(c5ccc(NC6CCC(=O)NC6=O)cc5F)CC4)CC3)cc2cc1C(=O)Nc1cccc(C(F)(F)F)n1 (stereo not drawn) [Example 61] ?
Result: 100 to 500 nM

====

system-tested: IRAK4 (Homo sapiens)
Construct: 293Tcells expressing HiBiT-tagged IRAK4 were then added into 384-well plates
Sequence (Q9NWZ3 1-460): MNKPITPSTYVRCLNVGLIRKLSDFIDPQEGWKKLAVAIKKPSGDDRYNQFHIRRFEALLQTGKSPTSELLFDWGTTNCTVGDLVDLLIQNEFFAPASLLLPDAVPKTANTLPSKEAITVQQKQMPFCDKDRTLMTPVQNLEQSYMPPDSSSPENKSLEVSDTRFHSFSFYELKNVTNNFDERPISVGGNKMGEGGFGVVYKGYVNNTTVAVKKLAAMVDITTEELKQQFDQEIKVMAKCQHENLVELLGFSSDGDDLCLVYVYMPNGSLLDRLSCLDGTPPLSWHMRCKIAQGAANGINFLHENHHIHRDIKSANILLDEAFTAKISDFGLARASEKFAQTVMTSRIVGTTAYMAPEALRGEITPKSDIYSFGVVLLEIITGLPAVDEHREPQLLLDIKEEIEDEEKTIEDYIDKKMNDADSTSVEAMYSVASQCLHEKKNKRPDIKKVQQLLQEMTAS
assay-info: IRAK4 Degradation Assay, HiBiT Method
Assay type: cell-based
test-context: 293T cells expressing HiBiT-tagged IRAK4, 6 hours
So I've got a bunch of compounds here, and I need their DC50 values.

Task: Give the measured DC50 of CC(C)Oc1cc2nn([C@H]3CC[C@H](CN4CCCCC4Cc4ccc(OC5CCC(=O)NC5=O)cc4)CC3)cc2cc1C(=O)Nc1cccn([C@H]2C[C@H]2F)c1=O (stereo partly drawn) .
Result: < 10 nM

Task: Okay, and CC(C)Oc1cc2nc([C@H]3CC[C@H](CN4CCC(c5ccc6c(c5)oc(=O)n6C5CCC(=O)NC5=O)CC4)CC3)cn2cc1C(=O)Nc1cnn2cccnc12 (stereo partly drawn) ?
Result: < 10 nM

Task: Okay, and Cc1cnc2c(NC(=O)c3cc4cn([C@H]5CC[C@H](CN6CCC(c7ccc(C8CCC(=O)NC8=O)cc7F)CC6)CC5)nc4cc3OC(C)C)cnn2c1 (stereo partly drawn) ?
Result: 10 to 100 nM

====

So I've got a bunch of compounds here, and I need their DC50 values.
system-tested: IRAK4 (Homo sapiens, UniProt Q9NWZ3)
Construct: 293Tcells expressing HiBiT-tagged IRAK4 were then added into 384-well plates
assay-info: IRAK4 Degradation Assay, HiBiT Method
Assay type: cell-based
test-context: 293T cells expressing HiBiT-tagged IRAK4, 6 hours
Protocol: Assay 1. IRAK4 Degradation Assay, HiBiT Method Selected compounds were tested in an IRAK4 degradation assay using the HiBiT Method. Phenol red-free Dulbecco's modified Eagle medium (DMEM) and fetal bovine serum (FBS) were purchased from Gibco (Grand Island, NY, USA). […] IRAK4 degradation was measured via the quantification of luminescent signals using the Nano-Glo® HiBiT Lytic Assay kit. […] Luminescence was acquired using an EnVision™ Multilabel Reader (PerkinElmer, Santa Clara, CA, USA).

Task: Give the measured DC50 of "CC(C)Oc1cc2nc([C@H]3CC[C@H](CN4CC5(CCN(c6ncc(N7CCC(=O)NC7=O)cc6F)CC5)C4)CC3)cn2cc1C(=O)Nc1cccn(C2CC2)c1=O" .
Result: 10 to 100 nM

Task: Okay, and CC(C)Oc1cc2nc(C3CCN(C(=O)CC4CC5(C4)CN(c4ccc(C6CCC(=O)NC6=O)cc4)C5)CC3)cn2cc1C(=O)Nc1cccc(C(F)F)n1 (stereo not drawn) ?
Result: 10 to 100 nM

Task: Okay, and CC(C)Oc1cc2nc([C@H]3CC[C@H](CN4CCC(c5ccc(OC6CCC(=O)NC6=O)cc5)CC4)CC3)cn2cc1C(=O)Nc1cccn(C2CC2)c1=O (stereo partly drawn) ?
Result: 10 to 100 nM

Task: Okay, and CC(C)Oc1cc2nc(C3CCN(C(=O)NC4CCN(c5ncc(C6CCC(=O)NC6=O)cc5F)CC4)CC3)cn2cc1C(=O)Nc1cnn2cccnc12 (stereo not drawn) ?
Result: < 10 nM

Task: Okay, and "CC(C)Oc1cc2nn([C@H]3CC[C@H](CN4CCC(c5ccc6c(N7CCC(=O)NC7=O)nn(C)c6c5)CC4)CC3)cc2cc1C(=O)Nc1cccn([C@H]2C[C@H]2F)c1=O" ?
Result: < 10 nM

Task: Okay, and CC(C)Oc1cc2nc(C3CCN(C(=O)CN4CCC(c5ccc(NC6CCC(=O)NC6=O)cn5)CC4)CC3)cn2cc1C(=O)Nc1cccc(C(F)F)n1 (stereo not drawn) ?
Result: 10 to 100 nM
